Attribution: ChEMBL document CHEMBL4433265

# TARGET: L-lactate dehydrogenase A chain (Homo sapiens)
# PROTOCOL_NOTES: Binding affinity to His-tagged human LDHA in absence of NAD+ by isothermal titration calorimetry
EXPERIMENTAL_ENDPOINT: Kd
The answer should read as a number with its unit following.

Note to self: Kd recorded for O=C(NCC(=O)N1CCC(Cc2nc(C3CC3)no2)CC1)c1ccccc1 was 43.2 µM

---

# TARGET: L-lactate dehydrogenase A chain (Homo sapiens, UniProt P00338)
# PROTOCOL_NOTES: Inhibition of His-tagged human LDHA incubated for 10 mins using NADH and pyruvate by microplate reader based assay
EXPERIMENTAL_ENDPOINT: EC50 (nM)
A number alone suffices; assume nM.

O=C(NCC(=O)N1CCC(Cc2nc(C3CC3)no2)CC1)c1ccccc1 tested on L-lactate dehydrogenase A chain (Homo sapiens, UniProt P00338) gave EC50: 700

---

# Tested on: NCI-H1975
# PROTOCOL_NOTES: Growth inhibition of human NCI-H1975 cells under hypoxic conditions by IncuCyte zoom live cell analysis
# Assay type: functional, cell-based
EXPERIMENTAL_ENDPOINT: IC50 (µM)
A number alone suffices; assume µM.

Note to self: IC50 recorded for O=C(NCC(=O)N1CCC(Cc2nc(C3CC3)no2)CC1)c1ccccc1 was 5.7

---

# TARGET: L-lactate dehydrogenase A chain (Homo sapiens)
# PROTOCOL_NOTES: Binding affinity to His-tagged human LDHA in presence of NAD+ by isothermal titration calorimetry
EXPERIMENTAL_ENDPOINT: pKd
In simple prose, pKd is minus the logarithm base ten of a concentration in moles per litre.

Note to self: pKd recorded for O=C(NCC(=O)N1CCC(Cc2nc(C3CC3)no2)CC1)c1ccccc1 was 5.99

---

# TARGET: L-lactate dehydrogenase A chain (Homo sapiens)
# PROTOCOL_NOTES: Inhibition of His-tagged human LDHA at 10 uM incubated for 10 mins using NADH and pyruvate by microplate reader based assay
The source made the active and inactive calls. The rule behind the calls is not given here.
EXPERIMENTAL_ENDPOINT: inhibition

Recorded inhibition, per entry:
{"columns": ["COMPOUND", "TARGET", "inhibition"],
 "data": [
  ["COc1cccc(OCC(=O)Nc2ccc3c(c2)NC(=O)C(C)(C)CO3)c1", "L-lactate dehydrogenase A chain (Homo sapiens)", "inactive"],
  ["Cc1ncn(CC(=O)N2CCC(Oc3cncc(N(C)C)n3)C2)c(=O)c1C (stereo not given)", "L-lactate dehydrogenase A chain (Homo sapiens)", "66.3%"],
  ["COc1ccccc1OCC(=O)NC1CCC(Oc2nc(C)cc(C)n2)CC1 (stereo not given)", "L-lactate dehydrogenase A chain (Homo sapiens)", "78.5%"],
  ["COc1cc(=O)n2c(c1CCCc1cc(OC)c(OC)c(OC)c1)CCC2", "L-lactate dehydrogenase A chain (Homo sapiens)", "25.7%"],
  ["O=C(c1cc2n(n1)CCCC2)N1CCN(C(=O)C2(c3cccs3)CCCC2)CC1", "L-lactate dehydrogenase A chain (Homo sapiens)", "inactive"]
]}

Note to self: inhibition recorded for O=C(CNC1CCN(c2ncc(F)cn2)CC1)COCc1ccccc1 was 45.8%

---

# TARGET: L-lactate dehydrogenase A chain (Homo sapiens)
# PROTOCOL_NOTES: Inhibition of His-tagged human LDHA at 10 uM incubated for 10 mins using NADH and pyruvate by microplate reader based assay
Active and inactive are the calls of the source. The rule behind the calls is not given here.

{"columns": ["STRUCTURE_AS_SMILES", "TARGET", "inhibition"],
 "data": [
  ["O=C(NCC(=O)N1CCC(Cc2nc(C3CC3)no2)CC1)c1ccccc1", "L-lactate dehydrogenase A chain (Homo sapiens)", "95.2%"],
  ["O=C(c1cc2n(n1)CCCO2)N1CCC(N2CCN(c3ncccc3C(F)(F)F)CC2)CC1", "L-lactate dehydrogenase A chain (Homo sapiens)", "inactive"],
  ["N#Cc1cccnc1N1CCC(CNC(=O)C(=O)Nc2cccc(C(F)(F)F)c2)CC1", "L-lactate dehydrogenase A chain (Homo sapiens)", "inactive"],
  ["O=C1N[C@](c2ccc(N3CCOCC3)cc2)(c2ccsc2)CC(O)=C1Sc1ccccc1Cl", "L-lactate dehydrogenase A chain (Homo sapiens)", "100%"]
]}
